System: BE-13 (T-Lymphoblastic Leukemia)
Assay: combination Emax (second highest fraction inhibited in the dose matrix, 72 h); higher = more inhibition; extreme values may be limits of the assay
criterion met means recorded combination Emax is 0.9 or above; criterion not met means it is below 0.9.

Does N#Cc1cnc(Nc2cc(NC[C@H]3CNCCO3)c(C(F)(F)F)cn2)cn1 [SRA737] + C=CCn1c(=O)c2cnc(Nc3ccc(N4CCN(C)CC4)cc3)nc2n1-c1cccc(C(C)(C)O)n1 [AZD1775] (first compound max 10 µM, partner max 1 µM) have a reported combination Emax of at least 0.9?
criterion met

// same read-out, input: CCN(CCO)CCCOc1ccc2c(Nc3cc(CC(=O)Nc4cccc(F)c4)[nH]n3)ncnc2c1 [AZD2811] + C[C@@H]1COCCN1C2=NC(=NC(=C2)C3(CC3)[S@](=N)(=O)C)C4=C5C=CNC5=NC=C4 [AZD6738] (first compound max 1 µM, 7x7, partner max 10 µM)
criterion not met

// same read-out, input: CC(=O)Nc1cccc(-n2c(=O)n(C3CC3)c(=O)c3c(Nc4ccc(I)cc4F)n(C)c(=O)c(C)c32)c1 [Trametinib] + Cc1nc(-c2cn3c(n2)-c2ccc(-c4cnn(C(C)(C)C(N)=O)c4)cc2OCC3)n(C(C)C)n1 [Taselisib] (first compound max 1 µM, 7x7, partner max 10 µM)
criterion not met

// same read-out, input: CC1(C)CCC(CN2CCN(c3ccc(C(=O)NS(=O)(=O)c4ccc(NCC5CCOCC5)c([N+](=O)[O-])c4)c(Oc4cnc5[nH]ccc5c4)c3)CC2)=C(c2ccc(Cl)cc2)C1 [Venetoclax] + C[C@@H]1COCCN1C2=NC(=NC(=C2)C3(CC3)[S@](=N)(=O)C)C4=C5C=CNC5=NC=C4 [AZD6738] (first compound max 1 µM, 7x7, partner max 10 µM)
criterion met

// same read-out, input: NC1(C(=O)N[C@@H](CCO)c2ccc(Cl)cc2)CCN(c2ncnc3[nH]ccc23)CC1 [Capivasertib] + CC(=O)c1c(C)c2cnc(Nc3ccc(N4CCNCC4)cn3)nc2n(C2CCCC2)c1=O [Palbociclib] (first compound max 10 µM, 7x7, partner max 10 µM)
criterion not met

// same read-out, input: N#Cc1cnc(Nc2cc(NC[C@H]3CNCCO3)c(C(F)(F)F)cn2)cn1 [SRA737] + O=c1[nH]cc(F)c(=O)[nH]1 [5-Fluorouracil] (first compound max 10 µM, 7x7, partner max 20 µM)
criterion not met
